// data source = ChEMBL document CHEMBL1126627

System: CEM-c113
assay procedure: Antiviral activity measured in lymphocytic cell line (CEM-C113) infected with HIV-1 cell free supernatants
Type: functional, cell-based
measurement context: Homo sapiens
IC50 reference
Numeric answer only, unit µM assumed.

>>> experimental_result("Cc1cn(C2C=CC(COP(=O)(OCCC#N)OCC3C=CC(n4cc(C)c(=O)[nH]c4=O)O3)O2)c(=O)[nH]c1=O (centres undefined)")
17

IC50 reading for CCCCCCCCCCCCCCCC(=O)OCC1C=CC(n2cc(C)c(=O)[nH]c2=O)O1 (centres undefined) : 4

IC50 reading for CCCCCCCCCCCCCCCCOP(=O)(O)OCC1C=CC(n2cc(C)c(=O)[nH]c2=O)O1 (centres undefined) : 10

IC50 reading for Cc1cn(C2C=CC(COP(=O)(O)OCC3C=CC(n4cc(C)c(=O)[nH]c4=O)O3)O2)c(=O)[nH]c1=O (centres undefined) : 100

IC50 reading for Cc1cn([C@H]2C=C[C@@H](CO)O2)c(=O)[nH]c1=O : 10

IC50 reading for CCCCCCCCCCCCCCCCOP(=O)(OCCC#N)OCC1C=CC(n2cc(C)c(=O)[nH]c2=O)O1 (centres undefined) : 17

IC50 reading for Cc1cn([C@H]2C[C@H](N=[N+]=[N-])[C@@H](CO)O2)c(=O)[nH]c1=O : 20
